- target: T1, VLP2 (virus-like particles of AAV2) (AAV2, UniProt P03135 1-735; P03135 1-598; P03135 1-533)
- T1 construct: Empty AAV2 capsid; background says about 60 protein molecules, VP1:VP2:VP3 = 1:1:10; Immobilised on the ELISA plate
- T1 sequence (P03135 whole entry, chain 1 of 3): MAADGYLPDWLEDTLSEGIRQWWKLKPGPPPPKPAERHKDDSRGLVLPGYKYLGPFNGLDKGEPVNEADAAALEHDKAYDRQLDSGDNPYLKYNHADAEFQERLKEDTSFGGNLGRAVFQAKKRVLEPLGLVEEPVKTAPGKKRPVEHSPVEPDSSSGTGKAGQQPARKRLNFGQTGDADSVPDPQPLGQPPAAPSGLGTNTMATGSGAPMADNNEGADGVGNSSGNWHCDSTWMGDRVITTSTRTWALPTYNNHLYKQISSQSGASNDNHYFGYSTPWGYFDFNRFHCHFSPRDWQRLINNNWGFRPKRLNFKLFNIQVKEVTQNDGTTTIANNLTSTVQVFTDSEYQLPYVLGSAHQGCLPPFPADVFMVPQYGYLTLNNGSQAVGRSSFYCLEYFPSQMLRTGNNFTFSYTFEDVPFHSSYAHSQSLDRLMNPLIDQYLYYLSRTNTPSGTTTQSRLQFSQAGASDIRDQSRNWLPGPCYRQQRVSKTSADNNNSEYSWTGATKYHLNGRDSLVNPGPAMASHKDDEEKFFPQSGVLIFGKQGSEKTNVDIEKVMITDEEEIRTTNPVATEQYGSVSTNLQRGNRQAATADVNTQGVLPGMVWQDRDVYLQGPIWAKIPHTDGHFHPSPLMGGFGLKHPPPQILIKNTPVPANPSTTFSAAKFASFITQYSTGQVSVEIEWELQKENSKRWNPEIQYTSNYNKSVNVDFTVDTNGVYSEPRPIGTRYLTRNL
- T1 sequence (P03135 139-735, tags left off, chain 2 of 3): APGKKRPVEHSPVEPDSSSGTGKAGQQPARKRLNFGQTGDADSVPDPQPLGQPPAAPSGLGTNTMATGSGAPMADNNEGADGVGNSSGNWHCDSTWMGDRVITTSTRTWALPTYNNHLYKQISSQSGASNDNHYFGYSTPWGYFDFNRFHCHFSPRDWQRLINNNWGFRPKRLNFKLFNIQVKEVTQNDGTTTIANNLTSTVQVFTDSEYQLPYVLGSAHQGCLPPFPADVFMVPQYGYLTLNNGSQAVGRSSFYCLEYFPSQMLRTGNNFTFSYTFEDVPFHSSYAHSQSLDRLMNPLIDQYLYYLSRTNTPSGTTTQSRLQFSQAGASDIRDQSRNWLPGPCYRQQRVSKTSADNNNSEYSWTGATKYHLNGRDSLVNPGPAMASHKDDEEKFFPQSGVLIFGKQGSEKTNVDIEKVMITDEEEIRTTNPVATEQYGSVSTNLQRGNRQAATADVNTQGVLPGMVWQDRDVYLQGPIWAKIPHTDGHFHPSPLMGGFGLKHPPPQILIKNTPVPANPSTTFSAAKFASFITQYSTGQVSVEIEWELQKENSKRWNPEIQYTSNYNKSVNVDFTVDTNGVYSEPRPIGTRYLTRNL
- T1 sequence (P03135 203-735, chain 3 of 3): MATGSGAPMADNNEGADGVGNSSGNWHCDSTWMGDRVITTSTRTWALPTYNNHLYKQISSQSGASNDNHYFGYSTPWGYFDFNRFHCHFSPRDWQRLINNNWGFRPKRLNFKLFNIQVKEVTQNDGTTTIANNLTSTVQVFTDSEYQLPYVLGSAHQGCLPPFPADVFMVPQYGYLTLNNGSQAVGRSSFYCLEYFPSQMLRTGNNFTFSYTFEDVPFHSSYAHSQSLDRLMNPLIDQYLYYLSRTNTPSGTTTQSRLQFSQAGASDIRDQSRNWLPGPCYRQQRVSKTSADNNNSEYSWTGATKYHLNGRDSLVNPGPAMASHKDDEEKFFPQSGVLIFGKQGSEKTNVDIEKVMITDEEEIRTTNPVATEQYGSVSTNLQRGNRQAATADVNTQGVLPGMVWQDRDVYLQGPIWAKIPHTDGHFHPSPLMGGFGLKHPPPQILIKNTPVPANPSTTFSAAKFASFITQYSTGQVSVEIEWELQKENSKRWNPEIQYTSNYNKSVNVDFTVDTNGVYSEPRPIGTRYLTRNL
- assay.notes: ELISA on VLP2; binding after pH 3.0 51.1°C 15 min / untreated;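 note: binding of the heat-treated AAV-binding protein to VLP2, expressed as a percentage of the binding of the same protein without heating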
# if value of Residual activity [%] reaches 30%, tag class 1; if it stays below, tag class 0

Worked examples follow.
{"binder": "AAV-binding protein No. 66 (AVR2 + Leu333Pro) (receptor) MGSAGESVQITLPKNEVQLNAYVPQEPPKGETCTYDWQLITHPRDYSGEMEGKHSQILKLSKLTPGLYEFKVIVEGQNAHSEGYVNVTVKPEPRKNRPPIAIVSPQFQEISLPTTSTVIDGSQSTDDDKIVQYHWEELKGPLREEKISEDTAILKLSKLVPGNYTFSLTVVDSDGATNSTTANLTVNKAVDHHHHHH", "label": "class 1"}
{"binder": "AAV-binding protein No. 68 (AVR2 + Tyr(Cys)342Arg) (receptor, Cys342 of AVR2 replaced by Arg) MGSAGESVQITLPKNEVQLNAYVLQEPPKGETRTYDWQLITHPRDYSGEMEGKHSQILKLSKLTPGLYEFKVIVEGQNAHSEGYVNVTVKPEPRKNRPPIAIVSPQFQEISLPTTSTVIDGSQSTDDDKIVQYHWEELKGPLREEKISEDTAILKLSKLVPGNYTFSLTVVDSDGATNSTTANLTVNKAVDHHHHHH", "label": "class 1"}
{"binder": "AVR3 (AAV-binding protein No. 75; Tyr342Cys, Gly390Ser, Ser476Arg) (receptor) MGSAGESVQITLPKNEVQLNAYVLQEPPKGETCTYDWQLITHPRDYSGEMEGKHSQILKLSKLTPGLYEFKVIVEGQNAHSEGYVNVTVKPEPRKNRPPIAIVSPQFQEISLPTTSTVIDGSQSTDDDKIVQYHWEELKGPLREEKISEDTAILKLSKLVPGNYTFRLTVVDSDGATNSTTANLTVNKAVDHHHHHH", "label": "class 1"}
{"binder": "AVR2 (AAV-binding protein No. 32, Tyr342Cys-Gly390Ser substitution product) (receptor) MGSAGESVQITLPKNEVQLNAYVLQEPPKGETCTYDWQLITHPRDYSGEMEGKHSQILKLSKLTPGLYEFKVIVEGQNAHSEGYVNVTVKPEPRKNRPPIAIVSPQFQEISLPTTSTVIDGSQSTDDDKIVQYHWEELKGPLREEKISEDTAILKLSKLVPGNYTFSLTVVDSDGATNSTTANLTVNKAVDHHHHHH", "label": "class 0"}
{"binder": "AAV-binding protein No. 60 (AVR2 + Lys323Glu) (receptor) MGSAGESVQITLPENEVQLNAYVLQEPPKGETCTYDWQLITHPRDYSGEMEGKHSQILKLSKLTPGLYEFKVIVEGQNAHSEGYVNVTVKPEPRKNRPPIAIVSPQFQEISLPTTSTVIDGSQSTDDDKIVQYHWEELKGPLREEKISEDTAILKLSKLVPGNYTFSLTVVDSDGATNSTTANLTVNKAVDHHHHHH", "label": "class 1"}

Now consider the entry below.
Q: Answer whether Residual activity [%] of AAV-binding protein No. 73 (AVR2 + Val396Ala) (receptor) MGSAGESVQITLPKNEVQLNAYVLQEPPKGETCTYDWQLITHPRDYSGEMEGKHSQILKLSKLTPGLYEFKVIVEGQNAHSEGYVNATVKPEPRKNRPPIAIVSPQFQEISLPTTSTVIDGSQSTDDDKIVQYHWEELKGPLREEKISEDTAILKLSKLVPGNYTFSLTVVDSDGATNSTTANLTVNKAVDHHHHHH is greater than or equal to 30%.
Result: class 1
